Test system: Escherichia coli TOP10
ASSAY NOTES: shrunken log2 fold change of peptide-encoding DNA abundance (4.5 h post-induction vs induction); higher = less antimicrobial activity (less host growth inhibition)
COND: time post-induction: 4.5 h; library: site-saturation at positions 5, 18, 19, 20
Give measured shrunken log2 fold change for each item. Keep answers brief.
Numbers only.

RRIRSRPPRLPRPRPRPAVHPRP = 0.0588
RRIRSRPPRLPRPRPRPSMQPRP = -0.242
RRIRKRPPRLPRPRPRPDYIPRP = -0.0117
RRIRVRPPRLPRPRPRPDRAPRP = -0.0118
RRIRDRPPRLPRPRPRPLYAPRP = -0.122

Consider the following items and state reported shrunken log2 fold change for each.
1. RRIRWRPPRLPRPRPRPVYYPRP
2. RRIRARPPRLPRPRPRPLFYPRP
3. RRIRCRPPRLPRPRPRPNVRPRP
4. RRIRCRPPRLPRPRPRPYYRPRP
5. RRIRPRPPRLPRPRPRPAESPRP
6. RRIRWRPPRLPRPRPRPLHMPRP
7. RRIRYRPPRLPRPRPRPITQPRP
8. RRIRQRPPRLPRPRPRPPALPRP

Reply:
1. -0.412
2. -0.312
3. -0.000423
4. -0.301
5. 0.44
6. -0.0711
7. -0.532
8. -0.179

// each sequence listed below needs its shrunken log2 fold change
1. RRIRFRPPRLPRPRPRPPRNPRP
2. RRIRTRPPRLPRPRPRPNYWPRP

Reply:
[0.263, -0.208]

###

So I've got a bunch of sequences here, and I need their shrunken log2 fold change values.
Test system: Escherichia coli TOP10
ASSAY NOTES: shrunken log2 fold change of peptide-encoding DNA abundance (4.5 h post-induction vs induction); higher = less antimicrobial activity (less host growth inhibition)
COND: time post-induction: 4.5 h; library: site-saturation at positions 5, 18, 19, 20
Answers are plain numbers.

RRIRARPPRLPRPRPRPSVWPRP = -0.0231
RRIRCRPPRLPRPRPRPWNIPRP = 0.0152
RRIRHRPPRLPRPRPRPHHGPRP = -0.755
RRIRTRPPRLPRPRPRPTGVPRP = 0.077
RRIRRRPPRLPRPRPRPEETPRP = 0.244

Record shrunken log2 fold change per entry; entries follow.
1. RRIRYRPPRLPRPRPRPTVQPRP
2. RRIRQRPPRLPRPRPRPKYQPRP

Reply:
1. 0.028
2. -0.369

Please state, for each entry, its recorded shrunken log2 fold change.
1. RRIRQRPPRLPRPRPRPLYDPRP
2. RRIRIRPPRLPRPRPRPCMLPRP
3. RRIRERPPRLPRPRPRPGHHPRP
4. RRIRERPPRLPRPRPRPTRDPRP
5. RRIRDRPPRLPRPRPRPIQCPRP

Reply:
1. -0.226
2. -0.61
3. -0.261
4. 0.245
5. 0.0299

Parameter requested: shrunken log2 fold change. Apply to each item below.
1. RRIRDRPPRLPRPRPRPFPCPRP
2. RRIRRRPPRLPRPRPRPIEMPRP
3. RRIRIRPPRLPRPRPRPGVQPRP
4. RRIRMRPPRLPRPRPRPCVCPRP
5. RRIRTRPPRLPRPRPRPDVKPRP
6. RRIRIRPPRLPRPRPRPWTTPRP
7. RRIRERPPRLPRPRPRPALGPRP
8. RRIRWRPPRLPRPRPRPPAWPRP

Reply:
[0.0367, 0.0754, -0.00174, -0.00811, -0.521, -0.102, 0.37, 0.794]

###

Test system: Escherichia coli TOP10
ASSAY NOTES: shrunken log2 fold change of peptide-encoding DNA abundance (4.5 h post-induction vs induction); higher = less antimicrobial activity (less host growth inhibition)
COND: time post-induction: 4.5 h; library: site-saturation at positions 5, 18, 19, 20
Record met whenever shrunken log2 fold change is at 0.06 or higher; record not met when lower.

RRIRARPPRLPRPRPRPQLAPRP = met

Task item: In plain terms: is recorded shrunken log2 fold change at least 0.06 for RRIRKRPPRLPRPRPRPCGLPRP ?
Reply: met

Task item: Let us now turn to RRIRSRPPRLPRPRPRPWQGPRP
Reply: not met

Task item: Moving on to RRIRNRPPRLPRPRPRPVHRPRP
Reply: not met

###

Test system: Escherichia coli TOP10
ASSAY NOTES: shrunken log2 fold change of peptide-encoding DNA abundance (4.5 h post-induction vs induction); higher = less antimicrobial activity (less host growth inhibition)
COND: time post-induction: 4.5 h; library: site-saturation at positions 5, 18, 19, 20
So I've got a bunch of sequences here, and I need their shrunken log2 fold change values.

Below are worked cases with known answers.
RRIRWRPPRLPRPRPRPIFEPRP = 0.308
RRIRSRPPRLPRPRPRPKHQPRP = 0.155
RRIRPRPPRLPRPRPRPDMKPRP = -0.417
RRIRKRPPRLPRPRPRPFYGPRP = -0.0306
RRIRRRPPRLPRPRPRPLWKPRP = 0.115

Give me shrunken log2 fold change for each of these sequences, listed below.
1. RRIRNRPPRLPRPRPRPQVLPRP
2. RRIRKRPPRLPRPRPRPQTLPRP
3. RRIRFRPPRLPRPRPRPRRRPRP

Reply:
1: -0.0163; 2: 0.0931; 3: 0.658

###

Assignment: determine reported shrunken log2 fold change for the given sequences.
Tested on: Escherichia coli TOP10
ASSAY NOTES: shrunken log2 fold change of peptide-encoding DNA abundance (4.5 h post-induction vs induction); higher = less antimicrobial activity (less host growth inhibition)
COND: time post-induction: 4.5 h; library: site-saturation at positions 5, 18, 19, 20
One number for each entry.

Example cases with answers are listed next.
RRIRNRPPRLPRPRPRPIMRPRP = 0.00621
RRIRSRPPRLPRPRPRPISMPRP = -0.145
RRIRYRPPRLPRPRPRPLDNPRP = -0.0671
RRIRFRPPRLPRPRPRPDILPRP = -0.119
RRIRHRPPRLPRPRPRPCNIPRP = -0.236

Would you mind listing shrunken log2 fold change for each of the following sequences?
1. RRIRCRPPRLPRPRPRPWSCPRP
2. RRIRWRPPRLPRPRPRPHHMPRP
3. RRIRWRPPRLPRPRPRPLKTPRP

Reply:
1. -0.739
2. -0.592
3. 0.453

###

System: Escherichia coli TOP10
ASSAY NOTES: shrunken log2 fold change of peptide-encoding DNA abundance (4.5 h post-induction vs induction); higher = less antimicrobial activity (less host growth inhibition)
COND: time post-induction: 4.5 h; library: site-saturation at positions 5, 18, 19, 20
Give criterion met when the value for shrunken log2 fold change is at least -0.2. Give criterion not met when it is less.

RRIRARPPRLPRPRPRPDGCPRP = criterion met

Task item: Evaluate RRIRQRPPRLPRPRPRPTISPRP : shrunken log2 fold change at minimum -0.2?
Reply: criterion not met

Task item: Please give the result for RRIRNRPPRLPRPRPRPSRKPRP too.
Reply: criterion not met

Task item: Thanks! And RRIRHRPPRLPRPRPRPENYPRP ?
Reply: criterion not met

Task item: Query RRIRIRPPRLPRPRPRPENGPRP next
Reply: criterion not met

Task item: Also RRIRDRPPRLPRPRPRPVQHPRP ?
Reply: criterion met

###

System: Escherichia coli TOP10
ASSAY NOTES: shrunken log2 fold change of peptide-encoding DNA abundance (4.5 h post-induction vs induction); higher = less antimicrobial activity (less host growth inhibition)
COND: time post-induction: 4.5 h; library: site-saturation at positions 5, 18, 19, 20
In this scheme, each record receives a class according to its shrunken log2 fold change; the ranges are lower level (below -0.1), middle level (-0.1 to below 0.02), upper level (0.02 or more)

RRIRERPPRLPRPRPRPNWLPRP = middle level
RRIRTRPPRLPRPRPRPPLGPRP = upper level
RRIRFRPPRLPRPRPRPLDEPRP = lower level
RRIRERPPRLPRPRPRPSEVPRP = lower level
RRIRSRPPRLPRPRPRPSICPRP = middle level

Task item: # classify by shrunken log2 fold change band: RRIRMRPPRLPRPRPRPGTCPRP
Reply: upper level

Task item: Now consider RRIRRRPPRLPRPRPRPPTGPRP .
Reply: upper level

###

So I've got a bunch of sequences here, and I need their shrunken log2 fold change values.
Tested on: Escherichia coli TOP10;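 further: peptides expressed intracellularly from a pBAD plasmid library in pooled LB shake-flask culture, induced with 0.3% L-arabinose, DNA abundance read by NGS, three biological replicates, DESeq2 with apeglm shrinkage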
ASSAY NOTES: shrunken log2 fold change of peptide-encoding DNA abundance (4.5 h post-induction vs induction); higher = less antimicrobial activity (less host growth inhibition)
COND: time post-induction: 4.5 h; library: site-saturation at positions 5, 18, 19, 20
Answers are plain numbers.

RRIRIRPPRLPRPRPRPPIRPRP = -0.0314
RRIRQRPPRLPRPRPRPPWWPRP = 0.498
RRIRRRPPRLPRPRPRPWNTPRP = -0.214

Batch request: shrunken log2 fold change per item, same order as input.
1. RRIRMRPPRLPRPRPRPPVKPRP
2. RRIRPRPPRLPRPRPRPHNCPRP
3. RRIRDRPPRLPRPRPRPRPLPRP
4. RRIRARPPRLPRPRPRPKLLPRP

Reply:
[0.512, -0.111, 0.39, 0.00678]

Provide each entry's shrunken log2 fold change from the list below.
1. RRIRSRPPRLPRPRPRPPYLPRP
2. RRIRSRPPRLPRPRPRPILCPRP
3. RRIRDRPPRLPRPRPRPRKYPRP
4. RRIRIRPPRLPRPRPRPVLGPRP
5. RRIRDRPPRLPRPRPRPREGPRP
6. RRIRWRPPRLPRPRPRPDKEPRP

Reply:
1. -0.45
2. -0.35
3. -0.283
4. 0.0875
5. 1.01
6. 0.0411
